Settings: buffer; pH 7.4; 200.0 µM
MEASURED METRIC: solubility kinetic (µg/mL)
All answers are understood in µg/mL, so give the number only.

COMPOUND	UNITS TEXT	OBSERVED RESULT
Cc1ccc(C)c(NC(=O)CN(C)C(C)C(=O)N2CC(C)CC(C)C2)c1 (configuration not stated)	µg/mL	47.9
COc1ccc(NC(=O)CN2CC(C)OC(C)C2)cc1Cl (configuration not stated)	µg/mL	43
CCc1nc(C)cc2c1sc1ccccc12.Cl	µg/mL	1
CCC(=O)Nc1cccc(C(=O)OC)c1	µg/mL	29.4
Cc1cccc(OCC(=O)NCCNC(=O)c2ccco2)c1	µg/mL	45

Okay, next one:
QUERY: # lookup: solubility kinetic of O=CC(Cl)P(=O)(N1CCOCC1)N1CCOCC1 (configuration not stated)
RESULT: 32.5
